# Measured on: Fuc(a1-2)Gal(b1-3)[Fuc(a1-4)]GlcNAc
# Test details: glycan array binding signal (z-score within array); higher = stronger binding
# Experimental parameters: glycan notation: IUPAC condensed, linker removed
The sample as a whole holds a higher share of the strongest signals than the screen did.
Measured quantity: glycan array binding signal (z-score)

INSERT INTO measurements (binder, measured_quantity, result) VALUES
  ('OGAA (protein) MVQKESQATLEERESELSSNPAASAGASLEPPAAPAPGEDNPAGAGGAAVAGAAGGARRFLCGVVEGFYGRPWVMEQRKELFRRLQKWELNTYLYAPKDDYKHRMFWREMYSVEEAEQLMTLISAAREYEIEFIYAISPGLDITFSNPKEVSTLKRKLDQVSQFGCRSFALLFADIDHNMCAADKEVFSSFAHAQVSITNEIYQYLGEPETFLFCPTEYCGTFCYPNVSQSPYLRTVGEKLLPGIEVLWTGPKVVSKEIPVESIEEVSKIIKRAPVIWDNIHANDYDQKRLFLGPYKGRSTELIPRLKGVLTNPNCEFEANYVAIHTLATWYKSNMNGVRKDVVMTDSEDSTVSIQIKLENEGSDEDIETDVLYSPQMALKLALTEWLQEFGVPHQY', 'glycan array binding signal (z-score)', -0.076),
  ('Strep tagII-anxA1 (Homo sapiens), P04083 (protein) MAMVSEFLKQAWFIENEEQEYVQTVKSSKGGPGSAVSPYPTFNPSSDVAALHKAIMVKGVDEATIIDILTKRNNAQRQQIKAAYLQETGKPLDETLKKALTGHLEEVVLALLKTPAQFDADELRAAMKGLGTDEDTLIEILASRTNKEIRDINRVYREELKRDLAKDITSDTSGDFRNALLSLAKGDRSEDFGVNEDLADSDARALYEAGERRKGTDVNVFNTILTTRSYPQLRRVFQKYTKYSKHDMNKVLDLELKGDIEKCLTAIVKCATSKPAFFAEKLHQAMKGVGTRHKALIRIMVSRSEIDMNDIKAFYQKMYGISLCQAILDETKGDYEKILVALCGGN', 'glycan array binding signal (z-score)', 5.05),
  ('his-Lectin-24A (Drosophila melanogaster) (protein) MFRLSVLVLNLLLVSHEFSAGTAKIEIQPLPALCNGYCFPTLKPVMEYVAIHQDKWNTCTEILANEARKDQIQLNIQLDALKADVSNIKASQLSKDEKLDRMEREQFAMHESLETINRYLTVKLDRTKLQLEAIKNTMDYMKAQMDGYFSAINGVQCLQPGFEKIGDRYFYIEEDVELNWLDAQAKCRRMGGHLASIKTKQEFDAIVEKLDDSKSYFLGVNENTKTGDFVSAASGKSCLYHEWGPGEPHHNNDQERCVSILRKLMHVGNCTYEKRFICQYGI', 'glycan array binding signal (z-score)', -0.536);
